- target_or_system: T1, NativeRPtag(large)_with_Tags_and_Cys (Thermoanaerobacter tengcongensis)
- T1 chain: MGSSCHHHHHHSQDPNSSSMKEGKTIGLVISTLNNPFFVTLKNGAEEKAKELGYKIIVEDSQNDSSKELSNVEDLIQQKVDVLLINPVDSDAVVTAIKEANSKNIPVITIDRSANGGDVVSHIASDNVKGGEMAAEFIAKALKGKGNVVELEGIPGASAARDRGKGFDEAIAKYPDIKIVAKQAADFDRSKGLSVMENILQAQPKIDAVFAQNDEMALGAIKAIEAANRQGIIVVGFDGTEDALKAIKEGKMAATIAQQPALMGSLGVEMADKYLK
- experiment_description: fluorescence anisotropy; ribose (3M)

| binder | uom | Kd |
| --- | --- | --- |
| PAELKLITK (modifications not checked) [RPtag(small) Nd8, Cd4] | nM | 42 |
